# Test system: MS2 coat protein
# method.summary: apparent KD of MS2 coat protein; designed switch direction (-1 OFF switch, 1 ON switch): -1; higher = weaker reporter binding
# stated.conditions: Eterna round: R95; input ligand: FMN 200 uM
I'd be grateful if you could share measured apparent KD of MS2 coat protein for these entries.
The response must be a number in nM with no trailing unit.

Per the records, this sequence ( GAUAAGGUAGGAUAUACGAAUAAAAAGGGUAGAAGAAGAACACAUGAGGAUCACCCAUGUAGAAGGACCAAUAG [Mat - Exclusion 2 - Mod of my Tesla design - D24] (puzzle: Exclusion 2) ) has apparent KD of MS2 coat protein equal to 37.9

response.value for GAGACACAUGAGGAUCACCCAUGUGAGGAUAUGCGAAGGACCAAAUUAAGAAUUAAAGGCAGAAGGCACAUAAA [Exclusion 1 V4] (puzzle: Exclusion 1) (field: apparent KD of MS2 coat protein) = 36.8

Lab book: apparent KD of MS2 coat protein of GGUACUAACACGAUAGUGUUAGUACUAUAAGCUUGUGUUACAUGAGGAUCACCCAUGUCCUCAUAAGCUCGUCUUGA [Mat - Sensor v3 - Turn-off var 2 - D91] (puzzle: Sensor v3, turn-off variant 2) noted as 38

Looking up AGUACUAACACGCCAGUGUUAGUACAAUAAGCUUGUGAAACAUGAGGAUCACCCAUGUCCUCAUAAGCUCGUCUUAU [salish99_TOv2_r3_028] (puzzle: Sensor v3, turn-off variant 2) , I see its apparent KD of MS2 coat protein listed as 16.9

Query GACAGACGAGCGUGAGCCGACAUGAGGAUCACCCAUGUGCUCGUCUUAUAACGUACUGUCACGUUAGUGAUAGUGCG [Sensor v3, turn-off variant 1 (MOD of Eli's v1-13 v.4)] (puzzle: Sensor v3, turn-off variant 1) yields apparent KD of MS2 coat protein of 54.3

For reference, reported apparent KD of MS2 coat protein for CGAAGUAGAAACCGAUCCUACAUGAGGAUCACCCAUGUAGCAAGACGUGCACGCGAAGCUCGUCAGACUACCAGAAG [salish99_TOv1_r3_004] (puzzle: Sensor v3, turn-off variant 1) stands at 343

apparent KD of MS2 coat protein in this record for GGUUGACAUGAGGAUCACCCAUGUGAGGAUAUGCGAGAGAAAAAAGUGAGGAAGAGAUGCAGAAGGCGCUGUCG [salish99-ex1_r3_016] (puzzle: Exclusion 1) : 68.5

Measured apparent KD of MS2 coat protein of AAUAACAAGCAAGAUCCUAACAUGAGGAUCACCCAUGUGCUCGUCUUAUAAAGUACUAUCACGAAAGUGAUAGUACA [Sensor 3, v1 - 45] (puzzle: Sensor v3, turn-off variant 1) : 470

Record ACGCAACAUGAGGAUCACCCAUGUCAGGAUAUCCGGCGAAAACCCAAGAAGGGAAACCGGAGAAGGGACAAAGG [ChP 04-04-2015 #1] (puzzle: Exclusion 1) , field apparent KD of MS2 coat protein: 134

Lab book: apparent KD of MS2 coat protein of CUGAGCAGACGAAGAUCCAACAUGAGGAUCACCCAUGUCUCAAAAGCUUUUUGCUCGUCUUAUCCUUCUCUGUUCUC [Reisedzaqu] (puzzle: Sensor v3, turn-off variant 1) noted as 16

Item: AAAUAAUAGAUAAAAUAAAACAUGAGGAUCACCCAUGUGGGAUGAUGAGGGUGAAACAAGCUUUUUGCUCGUCUUAU (puzzle: Sensor v3, turn-off variant 1) | apparent KD of MS2 coat protein: 386

Lookup result for GCGCAGUCAGGAUAUGCCGGAUAGGAUCACCCUGUCCAAAGGCAGAAGGGACAUGAGGAUCACCCAUGUGGCGC [e4e Mirror Pins] (puzzle: Exclusion 4) ; measured apparent KD of MS2 coat protein: 22.2
